- Test system: MDA-MB-231
- METHOD_SUMMARY: Anticancer activity against human MDA-MB-231 cells assessed as cell growth inhibition measured after 48 hrs by MTT assay
- Format: functional, cell-based
- TEST_CONDITIONS: MDA-MB-231, 48 h
Each entry below carries its reported IC50.

| CHEMICAL_STRUCTURE | REPORTED |
| --- | --- |
| CCOC(=O)c1c(-c2cc(O)c3c(c2)C(=O)c2cccc(O)c2C3=O)nn(-c2cccc(F)c2)c1C(=O)OCC | 1.85 µM |
| CCOC(=O)c1c(-c2cc(O)c3c(c2)C(=O)c2cccc(O)c2C3=O)nn(-c2ccc(C)c(C)c2)c1C(=O)OCC | 0.9 µM |
| CCOC(=O)c1c(-c2cc(O)c3c(c2)C(=O)c2cccc(O)c2C3=O)nn(-c2ccc(OC(F)(F)F)cc2)c1C(=O)OCC | 3.96 µM |

### Prompt For the molecule shown here, `COC(=O)c1c(-c2cc(O)c3c(c2)C(=O)c2cccc(O)c2C3=O)nn(-c2ccc(C(C)C)cc2)c1C(=O)OC` , give the reported IC50.
### Response 1.66 µM

### Prompt For the molecule shown here, `COC(=O)c1c(-c2cc(O)c3c(c2)C(=O)c2cccc(O)c2C3=O)nn(-c2ccccc2C)c1C(=O)OC` , give the reported IC50.
### Response 1.49 µM

### Prompt For the molecule shown here, `CCOC(=O)c1c(-c2cc(O)c3c(c2)C(=O)c2cccc(O)c2C3=O)nn(-c2ccc(C(C)C)cc2)c1C(=O)OCC` , give the reported IC50.
### Response 4.46 µM

### Prompt For the molecule shown here, `CCOC(=O)c1c(-c2cc(O)c3c(c2)C(=O)c2cccc(O)c2C3=O)nn(-c2ccccc2)c1C(=O)OCC` , give the reported IC50.
### Response 21.7 µM
